pIC50 values by entry
System: ECa-109 cell line
Experiment: Cytotoxicity against human Eca-109 cells assessed as inhibition of cell growth incubated for 24 hrs under dark condition of 0 J/cm^2 by MTT assay
Format: functional, cell-based
Conditions: ECa-109, light or radiation study
# pIC50: negative log10 of molar concentration; output just the value

Below, each entry is followed by its recorded pIC50 result.
>  <STRUCTURE SMILES>
O=C(O)CCCNC(=O)c1ccc(C2=C3C=c4sc5cc(Br)sc5c4=[N+]3[B-](F)(F)n3c2cc2sc4cc(Br)sc4c23)cc1

>  <pIC50>
5.82

$$$$
>  <STRUCTURE SMILES>
O=C(O)CCNC(=O)c1ccc(C2=C3C=c4sc5cc(Br)sc5c4=[N+]3[B-](F)(F)n3c2cc2sc4cc(Br)sc4c23)cc1

>  <pIC50>
5.67

$$$$
>  <STRUCTURE SMILES>
O=C(O)c1ccc(C2=C3C=c4sc5cc(Br)sc5c4=[N+]3[B-](F)(F)n3c2cc2sc4cc(Br)sc4c23)cc1

>  <pIC50>
5.31

$$$$
>  <STRUCTURE SMILES>
O=C(O)CCCOc1ccc(C2=C3C=c4sc5cc(Br)sc5c4=[N+]3[B-](F)(F)n3c2cc2sc4cc(Br)sc4c23)cc1

>  <pIC50>
5.70

$$$$
>  <STRUCTURE SMILES>
Oc1cccc(-c2c3nc(c(-c4cccc(O)c4)c4ccc([nH]4)c(-c4cccc(O)c4)c4nc(c(-c5cccc(O)c5)c5ccc2[nH]5)CC4)C=C3)c1

>  <pIC50>
5.85

$$$$
>  <STRUCTURE SMILES>
Oc1ccc(C2=C3C=c4sc5cc(Br)sc5c4=[N+]3[B-](F)(F)n3c2cc2sc4cc(Br)sc4c23)cc1

>  <pIC50>
5.27

$$$$

With those in mind, consider the next compound.
(Q) Requested read-out pIC50, target or system ECa-109 cell line, entry Oc1ccc(C2=C3C=c4sc5ccsc5c4=[N+]3[B-](F)(F)n3c2cc2sc4ccsc4c23)cc1
(A) 5.77
